species on record: Rattus norvegicus; assay: Modulation of [3H]NCS-382 binding to alpha4betadelta GABAA receptor in rat cortical membranes assessed as [3H]NCS-382 binding at 100 uM after 1 hr by TopCount scintillation counting method relative to control; type: cell membranes
Active and inactive are the calls of the source. The calls are words filed in the database; no cut-off is given here.
QUANTITY MEASURED: %max

Recorded results for 6 compounds are shown here.
COMPOUND	%max
CCOC(=O)C1=C(C)NC(=S)NC1c1ccccc1 (stereo not drawn)	inactive
CC1=C(C(=O)OCc2ccccc2)C(c2cccc(O)c2)NC(=S)N1 (stereo not drawn)	inactive
CCCC1=C(C(=O)OCC)C(c2cccc(O)c2)NC(=S)N1 (stereo not drawn)	198%
CCOC(=O)C1=C(C(C)(C)C)NC(=S)NC1c1cccc(O)c1 (stereo not drawn)	130%
CCOC(=O)C1=C(C)NC(=S)NC1c1cccc(O)c1 (stereo not drawn)	185%
CCOC(=O)C1=C(C)NC(=S)N[C@H]1c1cccc(O)c1	208%

# input compound: CCOC(=O)C1=C(CC)NC(=S)NC1c1cccc(O)c1 (stereo not drawn) ; wanted: its %max
245%

Okay, and CCOC(=O)C1=C(C)N(Cc2ccccc2)C(=S)NC1c1cccc(O)c1 (stereo not drawn) ?
inactive

====

species: Rattus norvegicus; assay: Modulation of [3H]NCS-382 binding to alpha4betadelta GABAA receptor in rat cortical membranes assessed as [3H]NCS-382 binding at 100 uM after 1 hr by TopCount scintillation counting method relative to control; format: cell membranes
Active and inactive are the calls of the source. No cut-off for these calls is given here.
QUANTITY MEASURED: %max

MOLECULE	%max
CCOC(=O)C1=C(C)NC(=S)NC1c1cn(-c2ccccc2)nn1 (configuration not stated)	inactive
CCOC(=O)C1=C(C)NC(=S)N[C@@H]1c1cccc(O)c1	171%
CCOC(=O)C1=C(C)N(c2ccccc2)C(=S)NC1c1cccc(O)c1 (configuration not stated)	inactive
CCOC(=O)C1=C(C)NC(=S)NC1c1ccc(C)cc1 (configuration not stated)	inactive
CCOC(=O)C1=C(C)N(CC)C(=S)NC1c1cccc(O)c1 (configuration not stated)	130%

I am curious: what %max value has been reported for CCOC(=O)C1=C(C(C)C)NC(=S)NC1c1cccc(O)c1 (configuration not stated) ?
130%

Repeat with CCOC(=O)C1=C(C)N=C(S)NC1C (configuration not stated)
inactive

Consider next the molecule CCOC(=O)C1=C(C)NC(=S)NC1c1cccc(F)c1 (configuration not stated) in the same way.
inactive

Then CCOC(=O)C1=C(c2ccccc2)NC(=S)NC1c1cccc(O)c1 (configuration not stated) ?
inactive

Now consider COC(=O)C1=C(C)N(C)C(=S)NC1c1cccc(O)c1 (configuration not stated) and answer again.
inactive

Try the molecule CCC(=O)C1=C(CC)NC(=S)NC1c1cccc(O)c1 (configuration not stated)
130%

Again, but for CCOC(=O)C1=C(C)NC(=S)NC1c1ccc(O)cc1 (configuration not stated)
inactive

====

organism: Rattus norvegicus; assay: Modulation of [3H]NCS-382 binding to alpha4betadelta GABAA receptor in rat cortical membranes after 1 hr by TopCount scintillation counting method; type: cell membranes
QUANTITY MEASURED: pKb

COMPOUND	pKb
CCOC(=O)C1=C(C)NC(=S)NC1c1cccc(O)c1 (stereo not drawn)	3.96
CCOC(=O)C1=C(CC)NC(=S)NC1c1cccc(O)c1 (stereo not drawn)	3.98
CCOC(=O)C1=C(C)N(C)C(=S)NC1c1cccc(O)c1 (stereo not drawn)	4.06
CCOC(=O)C1=C(C)NC(=S)NC1c1cc(O)cc(O)c1 (stereo not drawn)	3.83
COC(=O)C1=C(C)NC(=S)NC1c1cccc(O)c1 (stereo not drawn)	3.46
CCOC(=O)C1=C(C)NC(=S)N[C@@H]1c1cccc(O)c1	3.48
CCOC(=O)C1=C(C)NC(=S)N[C@H]1c1cccc(O)c1	3.95
CCOC(=O)C1=C(C)NC(=S)NC1c1ccc(O)c(O)c1 (stereo not drawn)	3.68

These entries and their values trace back to ChEMBL document CHEMBL4190247.
